biological target: Inadl_6, Q8NI35; test: holdup assay; parameters: key: below the threshold = too weak to quantify, mostly under pKd 3.1 to 4; conditions: plain residues with an end cap or a label only (N-terminal biotin on a linker: ado-ado)
Sequence (Q8NI35 1058-1167): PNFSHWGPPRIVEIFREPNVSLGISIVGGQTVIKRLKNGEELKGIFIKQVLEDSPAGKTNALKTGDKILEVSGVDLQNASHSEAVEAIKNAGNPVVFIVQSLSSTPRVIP
ENDPOINT_LABEL: pKd

• LESTTVGTSV [KARS1, Q15046] = below the threshold
• AEASVACSLC [PTGIR, P43119] = below the threshold
• PPGKHLVTEV [KCNA7, Q96RP8] = 3.56
• QSYPSKHDYV [CLDN18, P56856] = below the threshold
